- testSystem: TRPV1 receptors (Mus musculus, UniProt Q704Y3)
- Construct: from tissue; host or cells: cornea of the living mouse (C-fibre innervation)
- Sequence (Q704Y3 whole entry): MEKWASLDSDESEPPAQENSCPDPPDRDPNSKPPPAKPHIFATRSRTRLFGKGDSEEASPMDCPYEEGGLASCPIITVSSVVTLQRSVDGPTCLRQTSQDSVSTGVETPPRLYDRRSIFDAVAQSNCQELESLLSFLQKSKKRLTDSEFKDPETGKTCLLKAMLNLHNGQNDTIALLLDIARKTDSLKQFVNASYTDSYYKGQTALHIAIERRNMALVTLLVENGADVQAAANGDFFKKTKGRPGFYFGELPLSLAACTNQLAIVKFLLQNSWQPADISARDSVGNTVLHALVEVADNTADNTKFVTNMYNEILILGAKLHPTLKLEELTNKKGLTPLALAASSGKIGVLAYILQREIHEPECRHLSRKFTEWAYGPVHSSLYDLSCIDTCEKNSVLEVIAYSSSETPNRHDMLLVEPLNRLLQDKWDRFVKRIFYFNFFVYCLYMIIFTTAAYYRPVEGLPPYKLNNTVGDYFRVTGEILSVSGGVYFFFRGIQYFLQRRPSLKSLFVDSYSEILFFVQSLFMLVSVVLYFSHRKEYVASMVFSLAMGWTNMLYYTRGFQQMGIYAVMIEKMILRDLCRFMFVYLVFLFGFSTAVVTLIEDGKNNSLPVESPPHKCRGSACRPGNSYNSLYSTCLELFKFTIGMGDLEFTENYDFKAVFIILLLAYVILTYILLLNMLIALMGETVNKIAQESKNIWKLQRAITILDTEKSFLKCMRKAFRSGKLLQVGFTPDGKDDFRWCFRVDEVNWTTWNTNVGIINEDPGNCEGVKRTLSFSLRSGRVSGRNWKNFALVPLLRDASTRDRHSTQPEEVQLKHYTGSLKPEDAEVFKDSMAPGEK
- testDetails: Mouse cornea irritation test (capsaicin-induced eye rubbing)
- Format: in vivo
- conditionSet: compound 500 μM, 2 μl local application to the cornea 10 minutes before 2 μl of 160 μM capsaicin, rubbings counted for 2 minutes
propertyName: % P 500 μM (percentage protection) (%)
The response must be a number in % with no trailing unit.

Worked examples, 3 compounds total:
{"columns": ["compoundStructureString", "dataValue"],
 "data": [
  ["O=C(Nc1ccc(N2CCCC2)nc1)c1cc2cc(C(F)(F)F)cnc2n1Cc1ccncc1", 43],
  ["O=C(Nc1ccc(N2CCCC2)nc1)c1cc2cc(C(F)(F)F)cnc2n1Cc1cccc(F)c1", 30],
  ["CNc1ccc(NC(=O)c2cc3cc(C(F)(F)F)cnc3n2Cc2cccc(F)c2)cn1", 51]
]}

QUERY: Need % P 500 μM (percentage protection) of `O=C(Nc1ccc(N2CCC(F)(F)C2)nc1)c1cc2cc(C(F)(F)F)cnc2n1Cc1cccc(F)c1` , thanks.
RESULT: 83

QUERY: Which % P 500 μM (percentage protection) is reported for this compound? `Cc1cc(N(C)C)ncc1NC(=O)c1cc2cc(C(F)(F)F)cnc2n1Cc1cccc(F)c1.Cl`
RESULT: 34

Reference for the values: patent US8716273B2
